src = ChEMBL document CHEMBL5058564

# System: U2OS
# test_name: Incucyte cell viability with U2OS; further: unitless GR value; below 1 slowed growth and below 0 cell loss
# Format: toxicity, cell-based
# experimental_parameters: human, 18 h, 10 µM, compound concentration 10 uM, replicate number 2, timepoint 18 hours
quantity_name: Growth Rate

- compound: "O=C(NCc1ccc(F)cc1)N1CCN2C(=O)OC(c3ccccc3)(c3ccccc3)C2C1 (centres undefined)"
  experimental_result: 0.99
- compound: "CCOC(=O)N[C@@H]1CC[C@@H]2[C@@H](C1)C[C@H]1C(=O)O[C@H](C)[C@H]1[C@H]2/C=C/c1ccc(-c2cccc(F)c2)cn1"
  experimental_result: 0.88
- compound: "CCCn1c(=O)c2[nH]c(C3CCCC3)nc2n(CCC)c1=O"
  experimental_result: 0.95
- compound: "Cc1cnc(-c2cc(N3CCN(C(=O)CCS(C)(=O)=O)CC3)ncc2Cl)c(C)c1"
  experimental_result: 0.92

====

Listed next: entries and their corresponding Growth Rate.
# System: U2OS
# test_name: Incucyte cell viability with U2OS; further: unitless GR value; below 1 slowed growth and below 0 cell loss
# Format: toxicity, cell-based
# experimental_parameters: human, 24 h, 10 µM, compound concentration 10 uM, replicate number 2, timepoint 24 hours

- molecule: "CC(C)(C)c1ccc(CSc2cnn(C(C)(C)C)c(=O)c2Cl)cc1 [PYRIDABEN]"
  measurement_target: "U2OS"
  Growth Rate: 0.96
- molecule: "CN(C)C/C=C/C(=O)Nc1ccc(C(=O)N2CCCC(Nc3ncc(Cl)c(-c4c[nH]c5ccccc45)n3)C2)cc1 (stereo not given)"
  measurement_target: "U2OS"
  Growth Rate: 0.13
- molecule: "Cc1ccccc1N1CCN(S(=O)(=O)C[C@]23CC[C@H](C[C@@H]2NC(=O)[C@@H](N)CCS(C)(=O)=O)C3(C)C)CC1.Cl"
  measurement_target: "U2OS"
  Growth Rate: 1
- molecule: "Cc1nn(C)c(C)c1-c1cccc2c1CC[C@H](N(C)C)C2"
  measurement_target: "U2OS"
  Growth Rate: 0.99
- molecule: "CSCC[C@H](NC(=O)[C@@H]1CCCN1C(=O)CNC(=O)[C@H](CCCCN)NC(=O)[C@H](Cc1cnc[nH]1)NC(=O)[C@H](CO)NC(=O)[C@H](CC(C)C)NC(=O)[C@H](CCCNC(=N)N)NC(=O)[C@@H]1CCCN1C(=O)[C@H](CCCNC(=N)N)NC(=O)[C@@H](N)CCC(N)=O)C(=O)N1CCC[C@H]1C(=O)N[C@@H](Cc1ccccc1)C(=O)O"
  measurement_target: "U2OS"
  Growth Rate: 0.94
- molecule: "O=C(Nc1cc(-c2ccccc2)nn1-c1ccccc1F)c1ccc([N+](=O)[O-])cc1"
  measurement_target: "U2OS"
  Growth Rate: 0.95
- molecule: "CCc1nc2c(C)cc(C)nc2[nH]1"
  measurement_target: "U2OS"
  Growth Rate: 0.96
- molecule: "N=C(N)NCCC[C@@H](NC(=O)C(c1ccccc1)c1ccccc1)C(=O)NCc1ccc(CNC(N)=O)cc1.O=C(O)C(F)(F)F.O=C(O)C(F)(F)F"
  measurement_target: "U2OS"
  Growth Rate: 0.83
- molecule: "CCNC1(C(N)=O)CCN(c2ncnc3c2nc(-c2ccccc2Cl)n3-c2ccc(Cl)cc2)CC1 [OTENABANT]"
  measurement_target: "U2OS"
  Growth Rate: 0.93
- molecule: "CC[C@H](Nc1ncnc2[nH]cnc12)c1nc2cccc(F)c2c(=O)n1-c1ccccc1 [IDELALISIB]"
  measurement_target: "U2OS"
  Growth Rate: 0.73
- molecule: "CC[C@H]1CN2CCc3cc(OC)c(OC)cc3[C@@H]2C[C@@H]1C[C@H]1NCCc2cc(OC)c(OC)cc21 [EMETINE]"
  measurement_target: "U2OS"
  Growth Rate: 0.17
- molecule: "CN1CCN2c3ccccc3Cc3ccccc3C2C1.Cl (stereo not given) [MIANSERIN HYDROCHLORIDE]"
  measurement_target: "U2OS"
  Growth Rate: 0.97
- molecule: "COc1ccc(S(=O)(=O)N2C(=O)[C@@](c3ccccc3OC)(N3C[C@H](O)C[C@H]3C(=O)N(C)C)c3cc(Cl)ccc32)c(OC)c1"
  measurement_target: "U2OS"
  Growth Rate: 0.9
- molecule: "O=C(NCC(=O)N1CC[C@H](N[C@H]2CC[C@@](O)(c3ccc(-c4ncccn4)cn3)CC2)C1)c1cccc(C(F)(F)F)c1 [PF-4136309]"
  measurement_target: "U2OS"
  Growth Rate: 0.9
- molecule: "Cl.FC(F)(F)c1ccc(N2CCNCC2)nc1Cl"
  measurement_target: "U2OS"
  Growth Rate: 0.96

====

# Test system: HEK-293T
# test_name: Incucyte cell viability with HEK293T; further: unitless GR value; below 1 slowed growth and below 0 cell loss
# Type: toxicity, cell-based
# experimental_parameters: human, 18 h, 10 µM, compound concentration 10 uM, replicate number 1, timepoint 18 hours
*1 amine or outer side, *2 acyl side, *3 side chain or, on linkers, in order; H or OH if unused. Where a SMILES comes first, the peptide text is derived from it. Bridges are numbered along the chain shown (N, C = ends). X1 = O=C(CCC[*:2])[*:1]
Listed next: entries and their corresponding Growth Rate.

- compound: "N#Cc1c(Oc2cccc(OS(=O)(=O)CCCC(F)(F)F)c2)cccc1C(F)(F)F"
  Growth Rate: -0.01
- compound: "Cc1c(C(=O)Nc2ccc(N3C[C@@H](C)O[C@@H](C)C3)nc2)cccc1-c1ccc(OC(F)(F)F)cc1"
  Growth Rate: 0
- compound: "COc1ncc2cc(C(=O)Nc3cc(C(=O)NCc4cccc(Cl)c4)ccc3Cl)c(=O)[nH]c2n1"
  Growth Rate: 0.64
- compound: "O=C(c1cc(C2CC2)on1)N(C1CCCCC1)C1CCCCC1"
  Growth Rate: 0.64
- compound: "C[C@@H](O[C@H]1OCCN(Cc2n[nH]c(=O)[nH]2)[C@H]1c1ccc(F)cc1)c1cc(C(F)(F)F)cc(C(F)(F)F)c1 [APREPITANT]"
  Growth Rate: 0.77
- compound: "O=C(Nc1cc(-c2cn[nH]c2)ccc1N1CCOCC1)c1ccc(-c2ccc3ncccc3c2)o1"
  Growth Rate: 0
- compound: "CCCCC1=NC2(CCCC2)C(=O)N1Cc1ccc(-c2ccccc2-c2nnn[nH]2)cc1"
  Growth Rate: 0.86
- compound: "Cc1ccccc1-c1cc(N2CCN(C)CC2)ncc1N(C)C(=O)C(C)(C)c1cc(C(F)(F)F)cc(C(F)(F)F)c1"
  Growth Rate: 0.72
- compound: "C[C@H](CCC(=O)O)[C@H]1CC[C@H]2[C@@H]3CC[C@@H]4C[C@H](O)CC[C@]4(C)[C@H]3CC[C@]12C"
  Growth Rate: 0.75
- compound: "CC(=O)O[C@H]1C(=O)[C@@]2(C)[C@H]([C@H](OC(=O)c3ccccc3)[C@]3(O)C[C@H](OC(=O)[C@H](O)[C@@H](NC(=O)c4ccccc4)c4ccccc4)C(C)=C1C3(C)C)[C@]1(OC(C)=O)CO[C@@H]1C[C@@H]2O"
  Growth Rate: -0.17
- compound: "COC(=O)[C@H](CCCNC(=N)N)NC(=O)CCCc1c(-c2ccccc2)[nH]c2c(F)cc(F)cc12.O=C(O)C(F)(F)F"
  Growth Rate: 0.64
- compound: "CC(C)COc1ccc(CNC(=O)N(Cc2ccc(F)cc2)C2CCN(C)CC2)cc1"
  Growth Rate: -0.21
- compound: "CC[C@H](NC(=O)c1c(C)c(-c2ccccc2)nc2ccccc12)c1ccccc1"
  Growth Rate: 0.97
- compound: "CCc1nn2c(C)cc(C)nc2c1Cc1ccc(-c2nnc(C3CCNCC3)o2)cc1"
  Growth Rate: 0.88
- compound: "Cc1ccc2c(c1CCC(=O)O)CC[C@@H](NS(=O)(=O)c1ccc(Cl)cc1)C2"
  Growth Rate: 0.99
- compound: "OC[C@H]1O[C@@H](n2cnc3c(NC4CCCC4)ncnc32)[C@H](O)[C@@H]1O"
  Growth Rate: 0.75
- compound: "Br.Br.N=C(N)NCCSC(=N)N"
  Growth Rate: 0.98
- compound: "CCOc1ccc(Cc2nc3cc(C(=O)N(CC)CC)ccc3n2CC2CCCCC2)cc1"
  Growth Rate: 0.86
- compound: "O=C1NC(=Nc2c(Cl)cccc2Cl)S/C1=C\\c1ccc2nccnc2c1"
  Growth Rate: 0.07
- compound: "CC(C)CC(=O)Nc1cncc(-c2ccc3[nH]nc(-c4nc5c(-c6cccc(F)c6)cncc5[nH]4)c3c2)c1"
  Growth Rate: -0.48
- compound: "O=C(Nc1cc(C(F)(F)F)ccc1N1CCN(Cc2ccccn2)CC1)c1ccc(-c2ccncc2)o1"
  Growth Rate: -0.1
- compound: "CC(C)Oc1ccc(-c2nc(-c3cccc4c3CC[C@@H]4NCCO)no2)cc1C#N"
  Growth Rate: -0.32
- compound: "CN(C)CCN(Cc1ccc(-c2ccc(CNCCc3ccccc3)cc2)cc1)C(=O)CCC1CCCC1.Cl.Cl"
  Growth Rate: -0.55
- compound: "CN1C[C@H](C(=O)N[C@]2(C)O[C@@]3(O)[C@@H]4CCCN4C(=O)[C@H](Cc4ccccc4)N3C2=O)C[C@@H]2c3cccc4[nH]cc(c34)C[C@H]21.CS(=O)(=O)O [DIHYDROERGOTAMINE MESYLATE]"
  Growth Rate: 0.98
- compound: "CC[C@H](C)[C@@H]1NC(=O)[C@H](Cc2ccc(OC)cc2)NC(=O)CCCSC[C@@H](C(=O)N2CCC[C@H]2C(=O)N[C@@H](CC(C)C)C(=O)NCC(N)=O)NC(=O)[C@H](CC(N)=O)NC(=O)[C@H](CCC(N)=O)NC1=O [CARBETOCIN] (Y(Me)IQNCPLG-NH2; linker N-5 via X1)"
  Growth Rate: 0.76
- compound: "CSCC[C@H](NC(=O)[C@H](CC(C)C)NC(=O)CNC(=O)[C@H](Cc1ccccc1)N(C)C(=O)[C@H](Cc1ccccc1)NC(=O)[C@H](CC(=O)O)NC(=O)CCC(=O)O)C(N)=O [SENKTIDE]"
  Growth Rate: 0.92
- compound: "CC(C)OC(=O)N1CCC(Oc2ncnc3c2cnn3-c2ccc(S(C)(=O)=O)cc2F)CC1"
  Growth Rate: 0.98
- compound: "C[C@H]1[C@H]2CC[C@H]3[C@@H]4CC=C5C[C@@H](N(C)C)CC[C@]5(C)[C@H]4CC[C@]23CN1C"
  Growth Rate: 0.82
- compound: "CCCCCCCCCCCCC/C=C/[C@@H](O)[C@@H](N)COP(=O)(O)O"
  Growth Rate: 0.27
